- SYSTEM: T1, human C1s (human, UniProt P09871 16-688)
- T1 construct: Analyte in the Biacore assays; also called hC1s; serum-derived human C1s (CompTech)
- T1 sequence: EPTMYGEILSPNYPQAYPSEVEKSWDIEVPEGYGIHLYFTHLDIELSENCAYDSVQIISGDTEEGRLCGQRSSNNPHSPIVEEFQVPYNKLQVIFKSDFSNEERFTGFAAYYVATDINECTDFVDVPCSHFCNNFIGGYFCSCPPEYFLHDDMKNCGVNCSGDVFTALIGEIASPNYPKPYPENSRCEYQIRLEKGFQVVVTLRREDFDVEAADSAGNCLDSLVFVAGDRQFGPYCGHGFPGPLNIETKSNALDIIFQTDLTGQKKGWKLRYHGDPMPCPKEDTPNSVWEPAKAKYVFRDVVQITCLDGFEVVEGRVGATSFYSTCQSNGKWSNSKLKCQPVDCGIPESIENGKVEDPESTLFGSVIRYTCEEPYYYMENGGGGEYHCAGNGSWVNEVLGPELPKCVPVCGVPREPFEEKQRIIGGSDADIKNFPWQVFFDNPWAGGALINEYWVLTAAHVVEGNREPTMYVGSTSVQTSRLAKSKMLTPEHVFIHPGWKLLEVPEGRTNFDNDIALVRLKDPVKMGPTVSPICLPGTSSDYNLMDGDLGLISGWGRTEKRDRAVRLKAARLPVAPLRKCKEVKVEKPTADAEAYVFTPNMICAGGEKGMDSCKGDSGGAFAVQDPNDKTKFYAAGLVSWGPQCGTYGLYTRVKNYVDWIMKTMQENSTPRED
- TEST METHOD NOTES: SPR; KD at pH 5.8 (1.2 mM Ca) over KD at pH 7.4 (1.2 mM Ca)
Documented KD 5(+)/7(+) across a set of binders

BINDER	KD 5(+)/7(+)
C1_IPN92H0156-SG4GK/IPN93L0024-SK1 (antibody, human IgG4 S228P, kappa, name in Kabat numbering, V domains shown, Substitutions from IPN009VH2, Kabat numbering; also called IPN92H0156/IPN93L0024) VH: EVMLVESGGGLVKPGGSLRLSCAASGFTFSNYAMSWVRQAPGKGLEWVATISSGGSHTKYLDSVKGRFTISRDNSKDTLYLQMNSLRAEDTALYYCARLFTGHAMDYWGQGTLVTVSS VL: QIVLTQSPATLSLSPGERATLSCTASSSVSSSYLHWYQQKPGKAPKLWIYSTSNLASGVPSRFSGSGSGTDYTLTISSLQPEDFATYYCHQYYRLHPITFGQGTKLEIKR	7
C1_IPN92H0079-SG4GK/IPN93L0024-SK1 (antibody, human IgG4 S228P, kappa, name in Kabat numbering, V domains shown, Substitutions from IPN009VH2, Kabat numbering; also called IPN92H0079/IPN93L0024) VH: EVMLVESGGGLVKPGGSLRLSCAASGFTFSNKAMSWVRQAPGKGLEWVATISSGGSHTYYLDSVKGRFTISRDNSKDTLYLQMNSLRAEDTALYYCARLFTGHAMDYWGQGTLVTVSS VL: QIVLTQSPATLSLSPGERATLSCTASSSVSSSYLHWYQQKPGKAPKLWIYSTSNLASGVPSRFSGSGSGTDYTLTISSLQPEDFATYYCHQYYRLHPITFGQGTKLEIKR	5.7
C1_IPN92H0188-SG4GK/IPN93L0024-SK1 (antibody, human IgG4 S228P, kappa, name in Kabat numbering, V domains shown, Substitutions from IPN009VH2, Kabat numbering; also called IPN92H0188/IPN93L0024) VH: EVMLVESGGGLVKPGGSLRLSCAASGFTFSNYAMSWVRQAPGKGLEWVATISSGGSHTYYLDSVDGRFTISRDNSKDTLYLQMNSLRAEDTALYYCARLFTGHAMDYWGQGTLVTVSS VL: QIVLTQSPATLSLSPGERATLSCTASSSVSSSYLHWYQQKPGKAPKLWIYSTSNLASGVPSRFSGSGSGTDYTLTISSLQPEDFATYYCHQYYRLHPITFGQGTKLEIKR	4
